- assay.text: Hill coefficient was determined
- Format: ADME
Quick reference for Hill coefficient among some compounds
Give the value as a plain number.

These recorded examples may help you get a feel for the data.
smiles.data: CC(=O)N[C@@H](Cc1cnc[nH]1)C(=O)N[C@H](Cc1ccccc1)C(=O)N[C@@H](CCCNC(=N)N)C(=O)N[C@@H](Cc1c[nH]c2ccccc12)C(=O)Nc1ccc(C(=O)Nc2ccc(C(=O)Nc3ccc(C(=O)N[C@@H](Cc4cnc[nH]4)C(=O)N[C@H](Cc4ccccc4)C(=O)N[C@@H](CCCNC(=N)N)C(=O)N[C@@H](Cc4c[nH]c5ccccc45)C(N)=O)cc3)cc2)cc1
reading: 1.05
--
smiles.data: CCCC[C@H](NC(C)=O)C(=O)N[C@@H](CCC(=O)O)C(=O)N[C@@H](Cc1c[nH]cn1)C(=O)N[C@H](Cc1ccccc1)C(=O)N[C@@H](CCCN=C(N)N)C(=O)N[C@@H](Cc1c[nH]c2ccccc12)C(=O)NCCOCCOCCNC(=O)CCC(=O)N[C@@H](CCCC)C(=O)N[C@@H](CCC(=O)O)C(=O)N[C@@H](Cc1c[nH]cn1)C(=O)N[C@H](Cc1ccccc1)C(=O)N[C@@H](CCCN=C(N)N)C(=O)N[C@@H](Cc1c[nH]c2ccccc12)C(N)=O
reading: 1.23

For the next question, use this compound.
Suppose we examine the compound `CC(=O)N[C@@H](Cc1c[nH]cn1)C(=O)N[C@H](Cc1ccccc1)C(=O)N[C@@H](CCCN=C(N)N)C(=O)N[C@@H](Cc1c[nH]c2ccccc12)C(=O)N1CCC[C@H]1C(=O)NCC(=O)N1CCC[C@H]1C(=O)N[C@@H](Cc1c[nH]cn1)C(=O)N[C@H](Cc1ccccc1)C(=O)N[C@@H](CCCN=C(N)N)C(=O)N[C@@H](Cc1c[nH]c2ccccc12)C(N)=O` ; what Hill coefficient value has been reported?
0.84

Values from ChEMBL document CHEMBL1146694
